Test: qHTS assay to identify small molecule antagonists of the androgen receptor (AR) signaling pathway - cell viability counter screen (AID 743033; note: nearly all actives have a fitted effect of over 45% in size)
Conditions: AR-bla HEK293 viability, CellTiter-Glo luminescence, 16 h; series mostly up to 58.5 µM
Results filed as inconclusive are left out. The source made the active and inactive calls. Calls come from the whole dose curve; as a rule, active = well fitted cell-killing curve with a large enough effect in the repeat runs; inconclusive = weak or mixed curves; inactive = no such curve, though single readings can be large or run the other way. Starred links: 1 amine or outer side, 2 acyl side, 3 side chain; linkers in the order of their positions; H or OH if unused. Positions of bridges follow the written chain, without caps; N, C: chain ends. Non-standard residues stand in square brackets, D forms with d. Residues, ends and D or L forms follow the SMILES beside them. *: point of attachment. X5 = NC1=N[C@@H]([C@H](N[*:1])C(=O)[*:2])C[C@H](O)N1; ΔAla(Z-3-ureido) = NC(=O)N/C=C(\N)C(=O)O; β3hOrn = NCCC[C@H](N)CC(=O)*; Dap = NC[C@H](N)C(=O)O

compound: CC1=C(/C=C/C(C)=C/C=C/C(C)=C/C=C/C=C(C)/C=C/C=C(C)/C=C/C2=C(C)C[C@@H](O)CC2(C)C)C(C)(C)C[C@H](O)C1
outcome: inactive

compound: NCCC[C@H](N)CC(=O)N[C@H]1CNC(=O)[C@H]([C@H]2C[C@H](O)NC(N)=N2)NC(=O)/C(=C/NC(N)=O)NC(=O)[C@H](CO)NC(=O)[C@H](CO)NC1=O (β3hOrn-[Dap]SS[ΔAla(Z-3-ureido)][X5]; lactam 1-C)
outcome: inactive

compound: CNc1cc(OC)c(C(=O)N[C@H]2CCN(Cc3ccccc3)[C@H]2C)cc1Cl
outcome: inactive

###

Target: Aryl hydrocarbon receptor (Homo sapiens)
Assay: qHTS assay to identify small molecule that activate the aryl hydrocarbon receptor (AhR) signaling pathway (AID 743085); note: nearly all actives have a fitted effect of over 15% in size;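 for activation: HG2L7.5c1 human HepG2 liver cells with stably integrated DRE-driven firefly reporter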
Settings: HepG2 AhR-luc (HG2L7.5c1), luciferase, 24 h; series mostly up to 70.3 µM
Description: U.S. Tox21 Program National Center for Advancing Translational Sciences [NCATS] NIH Chemical Genomics Center [NCGC] U.S. Environmental Protection Agency [EPA] National Institutes of Environmental Health Sciences [NIEHS] National Toxicology Program [NTP] U.S. Food and Drug Administration [FDA] Tox21 Assay overview: The Aryl hydrocarbon Receptor (AhR), a member of the family of basic helix-loop-helix transcription factors, is crucial to adaptive responses to environmental changes. […]
Records with an inconclusive call do not appear. Active and inactive are the calls of the source. Calls come from the whole dose curve; as a rule, active = well fitted activation curve with a large enough effect in the repeat runs; inconclusive = weak or mixed curves; inactive = no such curve, though single readings can be large or run the other way. Positions of bridges follow the written chain, without caps; N, C: chain ends. Non-standard residues stand in square brackets, D forms with d. Residues, ends and D or L forms follow the SMILES beside them. *: point of attachment. X2 = CC[C@H](C)CCCCC(=O)*; Dab = NCC[C@H](N)C(=O)O
Labels: active, inactive

compound: CC[C@H](C)CCCCC(=O)N[C@@H](CCN)C(=O)N[C@H](C(=O)N[C@@H](CCN)C(=O)N[C@H]1CCNC(=O)[C@H]([C@@H](C)O)NC(=O)[C@H](CCN)NC(=O)[C@H](CCN)NC(=O)[C@H](CC(C)C)NC(=O)[C@@H](CC(C)C)NC(=O)[C@H](CCN)NC1=O)[C@@H](C)O (X2-[Dab]T[Dab][Dab][Dab][dL]L[Dab][Dab]T; lactam 4-C)
assigned.label: inactive
--
compound: NCCCNCCCCNC(=O)C(O)NC(=O)CCCCCCN=C(N)N (stereo not drawn)
assigned.label: inactive
--
compound: CC(=O)N=c1sc(S(N)(=O)=O)nn1C
assigned.label: inactive
--
compound: Cc1ccccc1OCC(O)CNCCOc1ccc(C(N)=O)cc1 (stereo not drawn)
assigned.label: inactive
--
compound: CC(O)[C@@H]1NC(=O)[C@H](CCCCN)NC(=O)[C@@H](Cc2c[nH]c3ccccc23)NC(=O)[C@H](Cc2ccccc2)NC(=O)[C@@H](NC(=O)[C@H](N)Cc2ccccc2)CSSC[C@@H](C(=O)N[C@H](CO)[C@@H](C)O)NC1=O (stereo partly drawn)
assigned.label: inactive
--
compound: CCCC(=O)N1CCCN(c2nc(N)c3cc(OC)c(OC)cc3n2)CC1
assigned.label: active
--
compound: COc1cc2c(cc1OC)CC(=O)N(CCCN(C)C[C@H]1Cc3cc(OC)c(OC)cc31)CC2
assigned.label: inactive
--
compound: COc1ccc2c(c1)OC(C)(C)C(c1ccccc1)C2c1ccc(OCCN2CCCC2)cc1 (stereo not drawn)
assigned.label: inactive
--
compound: CCCCCCCCCCCCCC[n+]1ccc(C)cc1
assigned.label: inactive
--
compound: CC(=O)OCC(=O)[C@@]12OC3(CCCC3)O[C@@H]1C[C@H]1[C@@H]3CCC4=CC(=O)C=C[C@]4(C)[C@@]3(F)[C@@H](O)C[C@@]12C
assigned.label: inactive
--
compound: O=C1O[C@H]2[C@H](O)[C@@H]1OC(O)[C@H]2O (stereo partly drawn)
assigned.label: inactive
--
compound: CC(O)[C@@H]1NC(=O)[C@H](Cc2ccccc2)NC(=O)[C@H](C(C)O)NC(=O)[C@H](CCCCN)NC(=O)[C@H](Cc2c[nH]c3ccccc23)NC(=O)[C@H](Cc2ccccc2)NC(=O)[C@H](Cc2ccccc2)NC(=O)[C@H](CC(N)=O)NC(=O)[C@H](CCCCN)NC(=O)[C@@H](NC(=O)CNC(=O)[C@H](C)N)CSSC[C@@H](C(=O)O)NC(=O)[C@H](CO)NC1=O (stereo partly drawn)
assigned.label: inactive
--
compound: C=C[C@]1(C)C[C@@H](OC(=O)CO)[C@]2(C)[C@H](C)CC[C@]3(CCC(=O)[C@H]32)[C@@H](C)[C@@H]1O
assigned.label: inactive
